// data source = the supplement of paper PMC9112550

- Test system: Escherichia coli TOP10;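 note: peptides expressed intracellularly from a pBAD plasmid library in pooled LB shake-flask culture, induced with 0.3% L-arabinose, DNA abundance read by NGS, three biological replicates, DESeq2 with apeglm shrinkage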
- TEST SUMMARY: shrunken log2 fold change of peptide-encoding DNA abundance (4.5 h post-induction vs induction); higher = less antimicrobial activity (less host growth inhibition)
- COND: time post-induction: 4.5 h; library: site-saturation at positions 5, 18, 19, 20
Catalogue of shrunken log2 fold change values
Please give only the number in your answer, with no unit.

Please review the entries below; each comes with its answer.
INSERT INTO assay_data (residues, measure_name, reported) VALUES
  ('RRIRIRPPRLPRPRPRPMLYPRP', 'shrunken log2 fold change', -0.33),
  ('RRIRMRPPRLPRPRPRPMKTPRP', 'shrunken log2 fold change', -0.00191),
  ('RRIRIRPPRLPRPRPRPFRNPRP', 'shrunken log2 fold change', -0.902),
  ('RRIRKRPPRLPRPRPRPREVPRP', 'shrunken log2 fold change', 0.538),
  ('RRIRNRPPRLPRPRPRPWVNPRP', 'shrunken log2 fold change', -0.00663),
  ('RRIRCRPPRLPRPRPRPGDEPRP', 'shrunken log2 fold change', 0.105);

[in] For the sequence "RRIRWRPPRLPRPRPRPGMEPRP" , what shrunken log2 fold change is on record?
[out] 0.302

[in] For the sequence "RRIRRRPPRLPRPRPRPQYWPRP" , what shrunken log2 fold change is on record?
[out] -0.147
